Origin of measurements: ChEMBL document CHEMBL1201862

Could you please report measured IC50 for the items listed next?
TESTED_ON: Nonstructural protein 1 (Influenza A virus)
Sequence (Q194T2 whole entry): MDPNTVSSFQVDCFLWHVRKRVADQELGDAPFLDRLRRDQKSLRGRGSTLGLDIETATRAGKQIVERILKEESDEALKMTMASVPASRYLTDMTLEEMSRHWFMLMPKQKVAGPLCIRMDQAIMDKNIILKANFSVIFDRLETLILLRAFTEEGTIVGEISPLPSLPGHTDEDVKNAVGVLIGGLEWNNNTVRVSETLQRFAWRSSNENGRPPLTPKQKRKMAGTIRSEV
Format: functional, Influenza A virus (A/California/07/2009(H1N1))
Active and inactive are the calls of the source.

| MOLECULE | TESTED_ON | IC50 |
| --- | --- | --- |
| CCN(CC)c1ccc(C(=C2C=CC(=[N+](CC)CC)C=C2)c2ccc(S(=O)(=O)O)cc2S(=O)(=O)[O-])cc1 | Nonstructural protein 1 (Influenza A virus) | 17.7 µM (active) |
| CN(C)CCCN=C(S)NCC(c1ccc(Cl)cc1Cl)c1c[nH]c2ccccc12 (stereo unspecified) | Nonstructural protein 1 (Influenza A virus) | 65.8 µM (active) |
| Cc1c(N2C(=O)/C(=C/c3cccc4ccccc34)SC2=S)c(=O)n(-c2ccccc2)n1C | Nonstructural protein 1 (Influenza A virus) | > 100 µM (active) |
| Cc1nccn1CC(=O)N/N=C/c1ccccc1O | Nonstructural protein 1 (Influenza A virus) | 18.4 µM (active) |
| Cc1ncc(N=Nc2ccccc2Cl)c(-c2ccccc2)n1 | Nonstructural protein 1 (Influenza A virus) | 39.1 µM (active) |

Problem: I'm curious: which IC50 was measured for CN1CCN(/N=C/c2c3ccccc3c(Cl)c3ccccc23)CC1 tested on Nonstructural protein 1 (Influenza A virus)?
Result: 24.9 µM (active)

---

Exercise: for every item that follows, state its recorded EC50.
TESTED_ON: Luciferin 4-monooxygenase (Photinus pyralis, UniProt P08659)
Sequence (P08659 whole entry): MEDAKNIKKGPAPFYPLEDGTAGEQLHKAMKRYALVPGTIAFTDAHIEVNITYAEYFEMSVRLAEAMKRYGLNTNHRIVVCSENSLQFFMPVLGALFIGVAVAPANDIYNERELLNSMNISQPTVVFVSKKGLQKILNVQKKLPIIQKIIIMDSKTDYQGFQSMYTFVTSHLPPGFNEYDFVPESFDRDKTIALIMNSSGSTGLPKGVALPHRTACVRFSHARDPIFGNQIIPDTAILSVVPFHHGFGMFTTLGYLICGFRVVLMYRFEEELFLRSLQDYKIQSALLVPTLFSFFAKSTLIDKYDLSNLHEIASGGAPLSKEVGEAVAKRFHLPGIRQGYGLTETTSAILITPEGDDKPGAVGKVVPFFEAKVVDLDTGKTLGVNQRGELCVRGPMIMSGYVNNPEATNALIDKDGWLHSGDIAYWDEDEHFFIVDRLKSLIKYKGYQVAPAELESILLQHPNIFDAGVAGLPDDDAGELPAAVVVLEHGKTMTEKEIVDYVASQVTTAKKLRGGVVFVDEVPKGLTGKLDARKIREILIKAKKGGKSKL
TEST_DESCRIPTION: inhibition of purified Photinus pyralis luciferase – biochemical, luminescence, dose response (AID 1891)
Calls of active or inactive are those of the source.

Solved cases (5 shown):
| COMPOUND | READOUT_TYPE | REPORTED_MEASUREMENT |
| --- | --- | --- |
| Cc1c(C#N)c(N)nc2c3c(sc12)NC(=O)CC3c1ccc(F)cc1 (stereo unspecified) | EC50 | > 112 µM (not active) |
| O=C(/C=C/Nc1ccccc1F)c1ccc(Br)cc1 | EC50 | 74.5 µM (active) |
| COC(=O)c1ccc(Oc2nc(C)cc(Oc3ccccc3)n2)cc1 | EC50 | > 112 µM (not active) |
| Cc1ccsc1/C=N/N1CCN(C2c3ccccc3-c3ccccc32)CC1 | EC50 | > 112 µM (not active) |
| COc1cc(/C=C2/C(=O)NN(c3cccc(F)c3)C2=O)ccc1OC(=O)c1ccco1 | EC50 | > 112 µM (not active) |

Problem: Requested field: EC50. Item: Cc1onc(C(=O)Nc2ccc3c(c2)OCO3)c1[N+](=O)[O-]
Result: > 112 µM (not active)

---

TESTED_ON: Trypsin (Sus scrofa, UniProt P00761)
Sequence (P00761 whole entry): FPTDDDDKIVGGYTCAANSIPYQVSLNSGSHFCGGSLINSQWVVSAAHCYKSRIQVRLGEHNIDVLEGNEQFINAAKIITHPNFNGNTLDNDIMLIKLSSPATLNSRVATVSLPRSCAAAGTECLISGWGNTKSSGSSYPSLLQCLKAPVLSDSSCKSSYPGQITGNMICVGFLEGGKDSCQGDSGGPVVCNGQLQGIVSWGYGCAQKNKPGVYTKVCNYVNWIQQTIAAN
TEST_DESCRIPTION: trypsin protease activity blockade – biochemical, quenched peptide fluorescence, cherry-pick, selectivity assay for Rce1 protease inhibitor project, dose response (AID 488789)
Calls of active or inactive are those of the source.
READOUT_TYPE: AC50

| INPUT_SMILES | REPORTED_MEASUREMENT |
| --- | --- |
| CCOc1ccc(S(=O)(=O)Nc2cc(OC)c(OC)cc2C(=O)O)cc1 | 7.53 µM (active) |
| Cc1cc(OCC(=O)N2CCC(C(=O)O)CC2)c2c(C)cc(=O)oc2c1 | 21.7 µM (active) |
| CC(C)c1cc(=O)oc2c3c4c(cc12)CCCN4CCC3 | 24.1 µM (active) |

Problem: Tell me the measured AC50 of Cc1cccc(-c2oc3ccccc3c2C#CCCCCO)c1 , please.
Result: 3.53 µM (active)
